system: TK-10 renal; experiment: NCI tumour cell line growth inhibition, 48 h
Where a SMILES comes first, the peptide text is derived from it.
I'd be grateful if you could share measured GI50 for these entries.

Would you please look over these solved cases?
COC(=O)C(C)NP(=O)(OCc1ccc(Cn2cnc3c(N)ncnc32)cc1)Oc1ccccc1 (stereo not drawn); > 100 µM
CCC(C)C1NC(=O)C(CCCCN)NC(=O)C(CCCCN)NC(=O)C(CC(C)C)NC(=O)C(CCCCN)NC(=O)C(C(C)CC)NC(=O)C(C(C)C)NC(=O)C(C(C)CC)NC(=O)C(CCCCN)NC(=O)C(CCCCN)NC(=O)C(C)NC(=O)C(CCCCN)NC(=O)C(CC(C)C)NC1=O (stereo not drawn) (cyclo(AKKIVIKLKKILK); configuration not given here); 1.87 µM
CCCCCN1C(=O)/C(=c2\sc3n(c2=O)C2C(NN=3)N(CC)C(=O)N2CC)c2ccccc21 (stereo not drawn); 1.8 µM
COc1ccc(/C=C(/C(=O)N2CCCCC2)c2cc(OC)c(OC)c(OC)c2)cc1; > 100 µM
NS(=O)(=O)c1ccc(N=Nc2c(O)[nH]c3ccc(Cl)cc23)cc1; 5.78 µM

Below are some compounds; for each one, tell me its GI50.
1. C#CC#CC#CC#CC#CC#CC#CC#CC[C@@H]1OC[C@H](COC(=O)O[C@@H](C(=O)O[C@H]2C[C@@]3(O)[C@@H](OC(=O)c4ccccc4)[C@@H]4[C@]5(OC(C)=O)CO[C@@H]5C[C@H](O)[C@@]4(C)C(=O)[C@H](OC(C)=O)C(=C2C)C3(C)C)[C@@H](NC(=O)c2ccccc2)c2ccccc2)O1
2. COc1cc2nccc(Oc3ccc(NC(=O)C4(C(=O)Nc5ccc(F)cc5)CC4)cc3)c2cc1OC(=O)c1ccc(N)cc1
3. COc1ccc2c(c1OC)C(=O)OC2C1c2c(c(N)c3c(c2OC)OCO3)CCN1C (stereo not drawn)

1. > 25 µM
2. 6.62 µM
3. 6.57 µM

====

tested on: HOP-92 NSCLC; test: NCI tumour cell line growth inhibition, 48 h; in the data active = GI50 below about 0.43 µM; inactive = the rest
Entry note: the call must match one of active, inactive

CCCCCC[n+]1noc(N)c1-c1ccc(-c2c(N)on[n+]2CCCCCC)cc1; inactive
COc1cc2nccc(Oc3ccc(NC(=O)C4(C(=O)Nc5ccc(F)cc5)CC4)cc3)c2cc1OC(=O)c1ccc(N)cc1; active

What is the recorded call for this compound in the test? CCNCCNc1cc(-c2ccc(Cl)c(Cl)c2)c(C#N)c2nc3ccccc3n12
inactive

====

I'd be grateful if you could share measured TGI for these entries.
system: RXF 393 renal; experiment: NCI tumour cell line growth inhibition, 48 h
Give bare numbers, in µM.

Would you please look over these solved cases?
COCCOc1nc(-c2ccccc2)nc2ccccc12; 30.6
CCOc1ccccc1C(=O)/C=C/c1cc2ccccc2[nH]c1=O; 0.34
CN(C)CCNC(=O)C1COc2cc(-c3cc(=O)c4ccccc4o3)ccc2O1 (configuration not stated); 38.8

If you can, please state the reported TGI value of Fc1ccc(-c2ncn(C3CCNCC3)c2-c2ccnc(Oc3cccc(C(F)(F)F)c3)n2)cc1 .
6.42

====

tested on: HCT-116 colon; experiment: NCI tumour cell line growth inhibition, 48 h
Measured Parameter: TGI

CCNCCNc1cc(-c2ccc(Cl)c(Cl)c2)c(C#N)c2nc3ccccc3n12; 1.08 µM
CCOC(=O)c1cc(C(=O)c2cc(OC)c(OC)c(OC)c2)n2nc(C)ccc12; > 100 µM
O=C(O)C(CO)N=Cc1nc(-c2ccccc2)oc1O (stereo not given); > 100 µM

Below are some compounds; for each one, tell me its TGI.
1. O=Cc1cn(Cc2ccccc2)c2ccccc12
2. CC(C)C(=O)NCC[C@@H](CNC(=O)OC(C)(C)C)NC(=O)OC(C)(C)C
3. NS(=O)(=O)c1ccc(N=Nc2c(O)[nH]c3ccc(Cl)cc23)cc1
4. C=C1C(=O)C23CC1CCC2C12CO[C@H](O)[C@H]1C(C)(C)[C@H](OC(C)=O)C[C@H]2OC3=O (stereo not given in full)
5. COc1ccc2c(c1OC)C(=O)OC2C1c2c(c(N)c3c(c2OC)OCO3)CCN1C (stereo not given)

> 100 µM
> 100 µM
> 16.9 µM
28 µM
14.6 µM

Below are some compounds; for each one, tell me its TGI.
1. CC1=CC(C)C(C)N(CC2=NCCN2)c2ccccc21 (stereo not given)
2. COC(=O)C1(CCC(=O)N(C)c2ccccc2)NNC2C(=O)N(c3ccccc3)C(=O)C21 (stereo not given)

1. > 100 µM
2. > 10 µM
